dissociation percent by entry:
Conditions: rat plasma, 37° C., 5 s
Response body: numeric value in %, unit text excluded.

The cases that follow already have their dissociation percent on record.
{"Compound": "CC(C)c1cccc(C(C)C)c1OC(=O)[C@@H](F)CCN1CC1.Cl", "dissociation percent, %": 92.3}
{"Compound": "CC(C)c1cccc(C(C)C)c1OC(=O)[C@H](F)CCN1CCCC1.Cl", "dissociation percent, %": 95.6}
{"Compound": "CC(C)c1cccc(C(C)C)c1OC(=O)[C@@H](F)CCCN(C)Cc1ccccc1.Cl", "dissociation percent, %": 72.3}
{"Compound": "CC(C)c1cccc(C(C)C)c1OC(=O)C(F)CCN(C)C.Cl (racemic) [Compound E1]", "dissociation percent, %": 75.1}
{"Compound": "CC(C)c1cccc(C(C)C)c1OC(=O)[C@H](F)CCN(C)C.Cl [Compound E2]", "dissociation percent, %": 100}

Turning now to a further record.
Recorded dissociation percent for CCN(C)CCC(F)C(=O)Oc1c(C(C)C)cccc1C(C)C.Cl (racemic) , please? 70.2
